Tested on: Japanese encephalitis virus
assay remarks: Antiviral activity against Japanese encephalitis virus RP-9 infected in C57BL/6 mouse assessed as mouse survival rate at 1 ug, ip administered one day before and 1 day after viral infection measured after 25 days post infection relative to solvent treated control
Format: functional
Each entry below lists one item and its recorded Survival value.

- compound: "CCCCCCCCCCCCCCCCCCCCCCCCCC(=O)N[C@@H](CO[C@H]1O[C@H](CO)[C@H](O)[C@H](O)[C@H]1O)[C@H](O)[C@H](O)CCCCCCCCCCCCCC [RGI-7000]"
  Survival, %: 57
- compound: "CCCCCCCCCCCCCC[C@@H](O)[C@@H](O)[C@H](CO[C@H]1O[C@H](C(=O)O)[C@H](O)[C@H](O)[C@H]1O)NC(=O)CCCCCCCCCCc1ccc(F)cc1"
  Survival, %: 71
- compound: "CCCCCCCCCCCCCC[C@@H](O)[C@@H](O)[C@H](CO[C@H]1O[C@H](C(=O)O)[C@H](O)[C@H](O)[C@H]1O)NC(=O)CCCCCCCCCCc1ccc(Oc2ccc(F)cc2)cc1"
  Survival, %: 64
- compound: "CCCCCCCCCCCCCC[C@@H](O)[C@@H](O)[C@H](CO[C@H]1O[C@H](CO)[C@H](O)[C@H](O)[C@H]1O)NC(=O)CCCCCCCc1ccc(F)cc1"
  Survival, %: 57
